Taken from PubChem BioAssay AID743255.

assay_target: Ubiquitin carboxyl-terminal hydrolase 1 (Homo sapiens) (UniProt O94782)
Sequence (O94782 whole entry, looked up): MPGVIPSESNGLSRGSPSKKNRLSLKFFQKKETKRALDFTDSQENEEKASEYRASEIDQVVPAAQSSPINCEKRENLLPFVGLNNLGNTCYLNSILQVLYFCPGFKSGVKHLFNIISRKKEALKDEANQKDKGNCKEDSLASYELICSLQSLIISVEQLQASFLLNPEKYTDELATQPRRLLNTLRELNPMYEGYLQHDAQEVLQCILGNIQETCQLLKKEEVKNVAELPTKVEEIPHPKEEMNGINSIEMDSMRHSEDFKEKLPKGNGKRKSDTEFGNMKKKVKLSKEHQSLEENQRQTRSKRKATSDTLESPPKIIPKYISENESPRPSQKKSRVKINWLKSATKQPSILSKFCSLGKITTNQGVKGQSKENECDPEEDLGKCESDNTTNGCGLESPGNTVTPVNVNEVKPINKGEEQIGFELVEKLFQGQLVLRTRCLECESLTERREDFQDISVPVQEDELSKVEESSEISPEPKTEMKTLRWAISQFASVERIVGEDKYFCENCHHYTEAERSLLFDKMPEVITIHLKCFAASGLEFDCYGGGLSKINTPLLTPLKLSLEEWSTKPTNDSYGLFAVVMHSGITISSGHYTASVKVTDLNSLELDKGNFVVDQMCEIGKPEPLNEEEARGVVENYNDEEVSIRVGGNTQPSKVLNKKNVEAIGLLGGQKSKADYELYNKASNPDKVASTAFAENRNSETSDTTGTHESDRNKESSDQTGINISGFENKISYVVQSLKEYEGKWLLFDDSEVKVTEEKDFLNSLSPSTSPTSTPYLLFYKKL
run_description: Inhibitors of USP1/UAF1: Primary Screen; further: nearly all actives have a fitted effect of over 60% in size; further: potency means the concentration at half of the fitted maximal effect
experimental_parameters: recombinant USP1/UAF1, Ub-Rhodamine cleavage fluorescence; series mostly up to 57.1 µM
The campaign covered roughly 390,000 compounds. About 910 (0.23%) were called active. About 5% were inconclusive and are not listed. This excerpt belongs to a sample that is enriched for actives.
recorded_metric: Potency

Recorded Potency, per entry:
{"columns": ["compound", "meas_value"],
 "data": [
  ["CCOC(=O)c1cccc(NC(=O)C(Cc2ccccc2)NS(=O)(=O)c2cccc3nsnc23)c1 (stereo not given)", "inactive"],
  ["COc1ccc(Cc2nc3ccc(C(=O)NCc4ccccc4Cl)cc3o2)cc1", "inactive"],
  ["CCOc1ccc(CNC(=O)c2cccc(Nc3nc4ccccc4n4nnnc34)c2)cc1OC", "inactive"],
  ["COc1ccc(-c2cn3c(n2)sc2cc(C(=O)Nc4ccc(F)cc4)ccc23)cc1", "inactive"]
]}

In the following, a different compound is considered.
*Q* Returns the measured Potency for the input compound. Input: `CC(=O)N1C(=O)/C(=C2\SC(=S)N(NC(=O)c3ccc(O)cc3)C2=O)c2ccccc21`
*A* 3.98 µM (active)

----------
assay_target: Ubiquitin carboxyl-terminal hydrolase 1 (Homo sapiens)
run_description: Inhibitors of USP1/UAF1: Primary Screen; further: nearly all actives have a fitted effect of over 60% in size
experimental_parameters: recombinant USP1/UAF1, Ub-Rhodamine cleavage fluorescence; series mostly up to 57.1 µM
Screen size: about 390,000 compounds; about 910 (0.23%) were called active. Inconclusive results (about 5%) are left out. Calls come from the whole dose curve; as a rule, active = well fitted inhibition curve with a large enough effect; inconclusive = small, poorly fitted or top-dose-only effect; inactive = no such curve, though single readings can be large or run the other way. The sample as a whole holds a higher share of actives than the screen did.
Pick one and only one: active, inactive

Answered examples (9):
{"columns": ["compound", "label"],
 "data": [
  ["CCC(=O)Nc1ccc(C)cc1-c1nc2ccccc2n(Cc2ccccc2)c1=O", "inactive"],
  ["CCS(=O)(=O)c1nc(S(=O)(=O)c2ccc(C)cc2)c(NCc2ccc(Cl)cc2)s1", "inactive"],
  ["COc1ccc(N2CCN(C(=O)CSCc3nc(-c4ccccc4Cl)oc3C)CC2)cc1", "inactive"],
  ["O=C(/C=C(O)/C=C/c1ccc(O)cc1)/C=C/c1ccc(O)cc1", "active"],
  ["O=C(CCOc1ccccc1)N(Cc1cccnc1)c1nc2ccc(Cl)cc2s1", "inactive"],
  ["O=C(CC(c1cccs1)N1Cc2ccccc2C1=O)Nc1ccc(F)c(F)c1 (stereo not given)", "inactive"],
  ["CCc1nc2cccnc2n1-c1ccc(CC(=O)Nc2c(C)cccc2C)cc1", "inactive"],
  ["Cc1cc(C)c2sc(NC(=O)c3ccc(S(=O)(=O)N4CCCC4)cc3)nc2c1", "inactive"],
  ["Cc1ccc(OCC(=O)OCc2cc(=O)n3nc(C4CC4)sc3n2)cc1C", "inactive"]
]}

Here is the next item to consider.
*Q* Assay result, entry `CCc1nc(-c2cc(S(=O)(=O)N3CCN(c4ccc(OC)cc4)CC3)ccc2OC)no1` — outcome?
*A* inactive

----------
assay_target: Ubiquitin carboxyl-terminal hydrolase 1 (Homo sapiens) (UniProt O94782)
run_description: Inhibitors of USP1/UAF1: Primary Screen; further: nearly all actives have a fitted effect of over 60% in size
experimental_parameters: recombinant USP1/UAF1, Ub-Rhodamine cleavage fluorescence; series mostly up to 57.1 µM
From the text: Deubiquitinating enzymes (DUBs) are a class of enzymes that can cleave isopeptide bond formed between the C-terminal carboxylate of ubiquitin and a lysine side-chain amino group on the target protein. Among them, ubiquitin specific proteases (USPs) constitute the largest DUB family. […] This miniaturized assay has a fluorescent read-out and is used to screen the NIH Molecular Libraries Small Molecule Repository (MLSMR) in order to identify a small molecule that inhibits USP1. […]
The campaign covered roughly 390,000 compounds. About 910 (0.23%) were called active. Roughly 5% stayed inconclusive and do not appear here. The call rests on the fitted dose curve; in most records, active means well fitted inhibition curve with a large enough effect; inconclusive means small, poorly fitted or top-dose-only effect; inactive means no such curve, though single readings can be large or run the other way. The sample holds actives, similar compounds and a random draw of the others, so the mix is not that of the screen.
Pick one and only one: active, inactive

Answered examples (2):
{"columns": ["molecule", "label"],
 "data": [
  ["COc1ccc2c(c1)Cc1sc(NC(=O)c3ccccc3Br)nc1-2", "active"],
  ["O=C(OCc1cc(=O)n2nc(C3CC3)sc2n1)c1ccccc1Cl", "inactive"]
]}

*Q* Assay result, entry `Fc1ccc(Nc2nc(SCc3ccccc3Cl)nc3ccccc23)cc1` — outcome?
*A* inactive

*Q* Assay result, entry `CCN(CCCNC(=O)c1cc2c(=O)n(CC)c3ccccc3c2s1)Cc1ccccc1` — outcome?
*A* active
